Here is a set of compounds with reported Kd for Receptor-interacting serine/threonine-protein kinase 3 (Homo sapiens, UniProt Q9Y572), compiled from the literature.

In the examples that follow, each entry is paired with its recorded Kd.
Smi: Cn1nc(-c2ccc(NS(=O)(=O)C(F)F)c(OCc3cccc(Cl)c3)c2)c2c(N)ncc(-c3cnn(C4CCOCC4)c3)c21
Endpoint Value: > 10 µM
//
Smi: NC(=O)c1c(-c2ccc(NS(=O)(=O)CCC(F)F)cc2)n[nH]c1Nc1cnccn1
Endpoint Value: > 30 µM
//
Smi: C[C@H](Oc1cc(-c2nn(C)c3c(-c4cnn(C5CNC5)c4)cnc(N)c23)ccc1NS(=O)(=O)C(F)F)c1ccc(F)cc1
Endpoint Value: > 10 µM

Task: Record request: Kd value, item `C[C@H](Oc1cc(-c2nn(C)c3c(-c4ccn(C)c4)cnc(N)c23)ccc1NS(=O)(=O)C(F)F)c1ccc(F)cc1`
Output: > 10 µM

Task: Record request: Kd value, item `CCS(=O)(=O)Nc1ccc(-c2n[nH]c(Nc3cnccn3)c2C(N)=O)cc1OC(C)(C)c1ccc(F)cc1`
Output: > 30 µM

Task: Record request: Kd value, item `NC(=O)c1c(-c2ccc(NS(=O)(=O)CC(F)F)c(OCc3ccc(F)cc3)c2)n[nH]c1Nc1cccc(C(F)(F)F)n1`
Output: > 30 µM

Task: Record request: Kd value, item `CCS(=O)(=O)Nc1ccc(-c2n[nH]c(Nc3cccc(C(F)(F)F)n3)c2C(N)=O)c(OCc2ccc(F)cc2)c1`
Output: > 30 µM

Task: Record request: Kd value, item `CCS(=O)(=O)Nc1ccc(-c2nn(C)c3c(-c4cnn(C5CCOCC5)c4)cnc(N)c23)cc1O[C@@H](C)c1ccc(F)cc1`
Output: 0.1 to 10 µM

Task: Record request: Kd value, item `CCS(=O)(=O)Nc1ccc(-c2n[nH]c(Nc3cccc(OC)n3)c2C(N)=O)cc1OCc1ccc(F)cc1`
Output: > 30 µM

###

Here is a set of molecules with reported Kd for Receptor-interacting serine/threonine-protein kinase 3 (Homo sapiens, UniProt Q9Y572), compiled from the literature.

In the examples that follow, each entry is paired with its recorded Kd.
Molecule: COCC(C)(C)c1cc(Nc2[nH]nc(-c3ccc(NS(=O)(=O)C(F)F)c(O[C@@H](C)c4ccc(F)cc4)c3)c2C(N)=O)no1
Kd: > 30 µM

Molecule: C[C@H](Oc1cc(-c2nn(C)c3c(-c4cnn(C5CCOCC5)c4)cnc(N)c23)ccc1NS(=O)(=O)C(F)F)c1ccc(F)cc1
Kd: > 10 µM

Molecule: CCS(=O)(=O)Nc1ccc(-c2coc3c(-c4cnn(CCO)c4)cnc(N)c23)cc1OCc1ccc(F)cc1
Kd: > 10 µM

Molecule: C[C@H](Oc1cc(-c2nn(C)c3c(-c4cnn(C5CCCNCC5)c4)cnc(N)c23)ccc1NS(=O)(=O)C(F)F)c1ccc(F)cc1 (some centres unmarked)
Kd: > 10 µM

Molecule: C[C@H](Oc1cc(-c2cnn3ccnc(N)c23)ccc1NS(=O)(=O)C(F)F)c1ccc(F)cc1
Kd: > 10 µM

Task: Kindly state the measured Kd obtained for `C[C@H](Oc1cc(-c2n[nH]c(Nc3cc(C(C)(C)F)on3)c2C(N)=O)ccc1NS(=O)(=O)C(F)F)c1ccc(F)cc1` with Receptor-interacting serine/threonine-protein kinase 3 (Homo sapiens, UniProt Q9Y572).
Output: > 30 µM

Task: Kindly state the measured Kd obtained for `NC(=O)c1c(-c2ccc(NS(=O)(=O)CC(F)(F)F)cc2)n[nH]c1Nc1ccccn1` with Receptor-interacting serine/threonine-protein kinase 3 (Homo sapiens, UniProt Q9Y572).
Output: > 30 µM

Task: Kindly state the measured Kd obtained for `C[C@H](Oc1cc(-c2nn(C)c3c(Cc4ccccc4)cnc(N)c23)ccc1NS(=O)(=O)C(F)F)c1ccc(F)cc1` with Receptor-interacting serine/threonine-protein kinase 3 (Homo sapiens, UniProt Q9Y572).
Output: > 10 µM

Task: Kindly state the measured Kd obtained for `C[C@H](Oc1cc(-c2nn(C)c3c(-c4ccc5c(cnn5C)c4)cnc(N)c23)ccc1NS(=O)(=O)C(F)F)c1ccc(F)cc1` with Receptor-interacting serine/threonine-protein kinase 3 (Homo sapiens, UniProt Q9Y572).
Output: > 10 µM

Task: Kindly state the measured Kd obtained for `CCS(=O)(=O)Nc1ccc(-c2n[nH]c(Nc3cnccn3)c2C(N)=O)cc1OCCc1ccccc1Cl` with Receptor-interacting serine/threonine-protein kinase 3 (Homo sapiens, UniProt Q9Y572).
Output: > 30 µM

Task: Kindly state the measured Kd obtained for `CCS(=O)(=O)Nc1ccc(-c2n[nH]c(Nc3ccnc(OCC(F)F)c3)c2C(N)=O)cc1` with Receptor-interacting serine/threonine-protein kinase 3 (Homo sapiens, UniProt Q9Y572).
Output: > 30 µM

Task: Kindly state the measured Kd obtained for CCC(Oc1cc(-c2n[nH]c(Nc3cnccn3)c2C(N)=O)ccc1NS(=O)(=O)C(F)F)c1ccc(F)cc1 (racemic) with Receptor-interacting serine/threonine-protein kinase 3 (Homo sapiens, UniProt Q9Y572).
Output: > 30 µM

Task: Kindly state the measured Kd obtained for `N#Cc1cccc(Nc2[nH]nc(-c3ccc(NS(=O)(=O)C(F)F)cc3)c2C(N)=O)n1` with Receptor-interacting serine/threonine-protein kinase 3 (Homo sapiens, UniProt Q9Y572).
Output: > 30 µM

Task: Kindly state the measured Kd obtained for `Cn1nc(-c2ccc(NS(=O)(=O)C(F)F)c(OCc3ccc(F)cc3)c2)c2c(N)ncc(-c3cnn(C4CCOCC4)c3)c21` with Receptor-interacting serine/threonine-protein kinase 3 (Homo sapiens, UniProt Q9Y572).
Output: > 10 µM

###

pKd: −log10 of the molar value.
Here is a set of compounds with reported pKd for Receptor-interacting serine/threonine-protein kinase 3 (Homo sapiens), compiled from the literature.

Smi: C[C@H](Oc1cc(-c2n[nH]c(Nc3ncn(C)n3)c2C(N)=O)ccc1NS(=O)(=O)C(F)F)c1ccc(F)cc1
Parameter Measured: pKd
Endpoint Value: < 4.52

Task: Record request: pKd value, item `CCS(=O)(=O)Nc1ccc(-c2n[nH]c(Nc3cc4ccccc4cn3)c2C(N)=O)cc1`
Output: < 4.52

Task: Record request: pKd value, item `Cc1cc(-c2cnc(N)c3c(-c4ccc(NS(=O)(=O)C(F)F)c(O[C@@H](C)c5ccc(F)cc5)c4)nn(C)c23)ccn1`
Output: < 5.00

Task: Record request: pKd value, item `CC(C)(C)n1nc(-c2ccc(N)c(OCc3ccc(F)cc3)c2)c(C(N)=O)c1Nc1cccc(C(F)(F)F)n1`
Output: < 4.52

Task: Record request: pKd value, item `Nc1n[nH]c2ncnc(-c3ccc(NS(=O)(=O)C(F)F)c(OCc4ccc(F)cc4)c3)c12`
Output: < 5.00

Task: Record request: pKd value, item `CCS(=O)(=O)Nc1ccc(-c2n[nH]c(Nc3ccnc(C(F)(F)F)n3)c2C(N)=O)cc1OCc1ccc(F)cc1`
Output: < 4.52

Task: Record request: pKd value, item `C[C@H](Oc1cc(-c2nn(C)c3c(-c4cnn(C5CCC(F)(F)CC5)c4)cnc(N)c23)ccc1NS(=O)(=O)C(F)F)c1ccc(F)cc1`
Output: < 5.00

###

Here is a set of molecules with reported pKd for Receptor-interacting serine/threonine-protein kinase 3 (Homo sapiens, UniProt Q9Y572), compiled from the literature.
pKd: −log10 of the molar value.

In the examples that follow, each entry is paired with its recorded pKd.
Molecule: NC(=O)c1c(-c2ccc(NS(=O)(=O)C(F)F)c(OCc3ncco3)c2)n[nH]c1Nc1cnccn1
pKd: < 4.52
//
Molecule: C[C@H](Oc1cc(-c2nn(C)c3c(-c4cnn(C5CCN(CC(F)(F)F)CC5)c4)cnc(N)c23)ccc1NS(=O)(=O)C(F)F)c1ccc(F)cc1
pKd: < 5.00
//
Molecule: C[C@H](Oc1cc(-c2nn(C)c3c(-c4ccc(C(F)(F)F)nc4)cnc(N)c23)ccc1NS(=O)(=O)C(F)F)c1ccc(F)cc1
pKd: < 5.00
//
Molecule: CCS(=O)(=O)Nc1ccc(-c2n[nH]c(Nc3cccc(C(F)F)n3)c2C(N)=O)cc1OCc1ccc(F)cc1
pKd: < 4.52
//
Molecule: C[C@H](Oc1cc(NS(=O)(=O)C(F)F)ccc1-c1n[nH]c(Nc2cnccn2)c1C(N)=O)c1ccc(F)cc1
pKd: < 4.52

Task: Kindly state the measured pKd obtained for COCC(Oc1cc(-c2n[nH]c(Nc3cc(C)on3)c2C(N)=O)ccc1NS(=O)(=O)C(F)F)c1ccc(F)cc1 (racemic) with Receptor-interacting serine/threonine-protein kinase 3 (Homo sapiens, UniProt Q9Y572).
Output: < 4.52

Task: Kindly state the measured pKd obtained for `C[C@H](Oc1cc(-c2cnn3c(-c4ccncc4)cnc(N)c23)ccc1NS(=O)(=O)C(F)F)c1ccc(F)cc1` with Receptor-interacting serine/threonine-protein kinase 3 (Homo sapiens, UniProt Q9Y572).
Output: < 5.00

###

Here is a set of compounds with reported pKd for Receptor-interacting serine/threonine-protein kinase 3 (Homo sapiens, UniProt Q9Y572), compiled from the literature.
pKd: −log10 of the molar value.

In the examples that follow, each entry is paired with its recorded pKd.
Smi: COc1ccc(-c2cnc(N)c3c(-c4ccc(NS(=O)(=O)C(F)F)c(O[C@@H](C)c5ccc(F)cc5)c4)nn(C)c23)cn1
pKd: < 5.00

Smi: Cc1nn(C)cc1Nc1[nH]nc(-c2ccc(NS(=O)(=O)C(F)F)c(O[C@@H](C)c3ccc(F)cc3)c2)c1C(N)=O
pKd: < 4.52

Please find the next compound below.
Task: Kindly state the measured pKd obtained for `C[C@H](Oc1cc(-c2nn(C)c3c(C4CCN(C)CC4)cnc(N)c23)ccc1NS(=O)(=O)C(F)F)c1ccc(F)cc1` with Receptor-interacting serine/threonine-protein kinase 3 (Homo sapiens, UniProt Q9Y572).
Output: < 5.00
